biological target: T1, parental PvRBP2b_(169-470) (Plasmodium vivax reticulocyte-binding protein 2b, N-terminal domain) (Plasmodium vivax strain Salvador I, UniProt A5K736); assay: BLI; Octet RED96; human mAb loaded on anti-human IgG Fc capture sensor tips; parental PvRBP2b169-470 or design in solution, 2-fold series 0.63 to 10 nM; 25 °C; PBS, 0.1% bovine serum albumin, 0.05% Tween-20; global fit 1:1 model; two independent experiments; settings: both partners purified
T1 construct: TEV cleavage site between the His tag and the protein; pPROEX HTb vector; also called parental construct; parental protein
pKd: −log10 of the molar value.
observable: pKd

binder: human mAb 237235 (antibody, V domains shown, naturally acquired human mAb, recombinant IgG captured by its Fc; source: Expi293 HEK cells, transfected, purified (protein A, SEC)) VH: QVQLVESGGGVVQPGRSLRLSCAASGFMFNSYGMHWVRQAPGKGLEWMAFISYDGSDDYYGDSVKGRITISRDNSKNTLFLHINSLRTEDTAVYYCAKESNYGENAFDVWGHGTMVTVSS VL: QSALTQPRSVSGSPGQSVTISCTGTSNDVGFYNFVSWYQHHPGKAPKLMIYDVTERPSGVPDRFSGSKSGNTASLTISGLQAEDEAEYYCCSYAGTYTFVFGHGTKVTVL
pKd: > 12.00

Working through the 2 binders below one at a time, give pKd for each.
1. human mAb 273264 (antibody, V domains shown, naturally acquired human mAb, recombinant IgG captured by its Fc; source: Expi293 HEK cells, transfected, purified (protein A, SEC)) VH: EVQLLESGGGLVRPGGSQRLSCAASGFTFTPYAMTWVRQAPGKGLEWLSTISGSGGSTSYADSVKGRFTISRDNSKNILYLQMDSLRAEDTALYYCTKDKDEYTFGHNAFDVWGRGTMVTVSS VL: SYELTQAPSVSVAPGQTARITCGGDNIGRTSVHWYQQKPGQAPVLVIFYDNDRPSGIPERFSGSNSGNMATLSISRVEVGDEADYYCQVWDSNNDHPVFGGGTKLTVV
2. human mAb 241242 (antibody, V domains shown, naturally acquired human mAb, recombinant IgG captured by its Fc; source: Expi293 HEK cells, transfected, purified (protein A, SEC)) VH: EVQLLESGGGLVQPGGSLRLSCAVSGFTFRNYALSWVRQAPGKGLDWVSTISASGGATYYADSVKGHFTISRDNSKNILYLDMKSLRAEDTAIYYCARDGGSYTPYFFLDSWGQGALVTVSS VL: SYELTQPASVSVAPGQTAQITCGGNSIGRKSIHWYQHKPGQAPVLVISYDSDRPSGIPERFSGSNSGNTATLTISKVEAGDEADFYCQVRDSDNDHVVFGGGTKLTVL

> 12.00
> 12.00
